Target: HLA-A*03:01
Experiment: IEDB peptide-MHC binding, purified MHC/direct/fluorescence; filed as Kd, often an IC50 or EC50 that approximates it; bounds were set here for any values at or beyond the usual limits of such assays
Conditions: source organism: Rickettsia typhi
measured_attribute: Kd

Field request: Kd | item: LTIPTIMGR 930 nM

* * *

pKd listing for selected sequences.
Molecular target: HLA-B*58:01
Experiment: IEDB peptide-MHC binding, purified MHC/competitive/radioactivity; filed as Kd, often an IC50 or EC50 that approximates it; bounds were set here for any values at or beyond the usual limits of such assays
Details: source organism: Dengue virus 4 Philippines/H241/1956
Reminder that pKd means the negative base-10 logarithm of the concentration expressed in mol/L.

# sequence_chain, pKd
rows = [
    ("GASKRSWPLN", 6.12),
]

Recorded pKd of LASAILNAHE , please. 6.01
